Recorded kon by entry
Target: T1, baboon EL (baboon)
T1 construct: Heparin extract
Test: Biacore; EL captured by anti-C2-tag Ab; bivalent fit
Protocol: The binding affinities of anti-EL antibodies were measured using Biacore. […] Then, anti-EL antibodies were added and the binding affinities were calculated by bivalent fitting of BIAevaluation software.
Numeric answer only, unit M⁻¹ s⁻¹ assumed.

Q) Using the record for 14A1 (antibody, mouse IgG1, V domains shown, mouse IgG1 from hybridoma) VH: QIQLVQSGPELKKPGETVKISCKASGYTFTNYGMNWVKQAPGKGLKWMGWINTYSGVPTYADDFKGRFAFSLETSASTAYLQINNFKNEDTATYFCARFSYYGRHYFDYWGQGTALTASS VL: DIVLTQSPASLAVSLGQRATISCKASQSVDYDGDSYMNWYQQKPGQPPKLLIYAASNLKSGIPARFSGSGSGTDFTLNIHPVEEEDAATYYCQQTTDDPPWTFGGGTKLEIK , report its kon.
A) 190000

As a next step, examine the binder that follows.
Q) Using the record for 16B3 (antibody, mouse IgG2a, V domains shown, mouse IgG2a from hybridoma; also called 16B3 (mouse mAb)) VH: DVKLVESGGGLVQPGGSLKLSCTASGFTFSGYTMSWVRQTPEKRLELVAEISFARDRAFYPDTVKGRFTISRDNAKNTLYLQMSSLKSEDTAMYYCTRLGGRNHDYWYFDVWGTGTTVTVSS VL: DIVLTQSPTSLAVSPGQRATISCRASESVEYYGTSLMQWYQQKPGQRPQLLIYAASNVESGVPARFSGSGSGTDFSLNIHPVEEDDIAVYFCQQSWKVPFTFGSGTKLEIK , report its kon.
A) 31000
